- tgt: β1c (Homo sapiens, UniProt P28072+Q99436)
- Construct: protease activity associated with the proteasome complex in cultured cells; endogenous in cells
- experiment-notes: Cell-Based Proteasome Activity/Selectivity Assay (Ramos cells), substrate (LLE)2 Rh110
- condition-set: highest concentration tested 20 μM
pIC50: −log10 of the molar value.
reported-property: pIC50

Below: 5 compounds and their reported pIC50.
test-smiles: COc1ccc(C[C@H](NC(=O)[C@H](C)NC(=O)c2cc3ncccc3n2C)C(=O)N[C@@H](Cc2ccccc2)C(=O)C(=O)NCc2ccccc2)cc1
pIC50: 5.20
//
test-smiles: CCCC[C@H](NC(=O)[C@H](Cc1c[nH]c2ccccc12)NC(=O)[C@H](C)NC(=O)C1=C(C)c2ccccc2C1)C(=O)C(=O)N[C@@H](C)c1ccccc1
pIC50: 4.88
//
test-smiles: CCCC[C@H](NC(=O)[C@H](Cc1c[nH]c2ccccc12)NC(=O)[C@H](C)NC(=O)C1=C(C)c2ccccc2C1)C(=O)C(=O)N[C@H](C)c1ccccc1
pIC50: 4.95
//
test-smiles: C[C@H](NC(=O)N1Cc2ccccc2C1)C(=O)N[C@@H](Cc1ccccc1)C(=O)N[C@@H](Cc1ccccc1)C(=O)C(=O)NCc1ccccc1
pIC50: 4.99
//
test-smiles: COc1ccc(C[C@H](NC(=O)[C@H](C)NC(=O)c2cn3ccccc3n2)C(=O)N[C@@H](Cc2ccccc2)C(=O)C(=O)NCc2ccccc2)cc1
pIC50: 4.76

[1] COc1ccc(C[C@H](NC(=O)[C@@H](NC(=O)C2Cc3ccccc3C2)C2CC2)C(=O)N[C@@H](Cc2ccccc2)C(=O)C(=O)NCc2ccccc2)cc1
[2] COc1ccc(C[C@H](NC(=O)[C@H](C)NC(=O)CN2CCOc3ccccc32)C(=O)N[C@@H](Cc2ccccc2)C(=O)C(=O)NCc2ccccc2)cc1
[3] CC(C)C[C@H](NC(=O)[C@H](C)NC(=O)C1Cc2ccccc2C1)C(=O)N[C@@H](Cc1ccccc1)C(=O)C(=O)NCc1ccccc1
## Input Hello, I need these entries ordered by pIC50, highest reading first. Thanks! Rank them, then answer with their labels in that order.
## Output 1, 3, 2
(1: 5.62, 3: 5.15, 2: 4.87)

* * *

- tgt: β5i (Homo sapiens, UniProt P20618+P28062)
- Construct: protease activity associated with the proteasome complex in cultured cells; endogenous in cells
- experiment-notes: Cell-Based Proteasome Activity/Selectivity Assay (Ramos cells), substrate (ANW)2Rh110
- condition-set: highest concentration tested 20 μM, read-out: Ic50 ramos:ac-(anw)2-r110
- From the text: Cell-Based Proteasome Activity/Selectivity Assay The Cell-Based Proteasome subunit activity/selectivity assay was a panel of 5 fluorogenic assays that independently measured the activity of β5c or β5i (chymotrypsin-like activity), β2c/2i (trypsin-like), and β1c or β1i (caspase-like) protease activity associated with the proteasome complex in cultured cells. […]
pIC50: −log10 of the molar value.
reported-property: pIC50

compound: Cc1cc(C(=O)N[C@@H](C)C(=O)N[C@@H](Cc2ccccc2)C(=O)N[C@@H](Cc2ccccc2)C(=O)C(=O)NCc2ccccc2)n(C)n1
pIC50: 6.66

[a] COc1ccc(C[C@H](NC(=O)[C@H](C)NC(=O)c2cnccn2)C(=O)N[C@@H](Cc2ccccc2)C(=O)C(=O)NCc2ccccc2)cc1
[b] C[C@H](NC(=O)C1Cc2ccccc2C1)C(=O)N[C@@H](CCc1ccccc1)C(=O)N[C@@H](Cc1ccccc1)C(=O)C(=O)NCc1ccccc1
## Input From the recorded data, which exceeds the other in pIC50: a or b ? Pick one; state its label.
## Output b

[1] C[C@H](NC(=O)C1Cc2ccccc2C1)C(=O)N[C@@H](Cc1c[nH]c2ccccc12)C(=O)N[C@@H](Cc1ccccc1)C(=O)C(=O)NCc1ccccc1
[2] COc1ccc(C[C@H](NC(=O)[C@H](C)NC(=O)C2Cc3ccccc3C2)C(=O)NC2(C(=O)C(=O)NCc3ccccc3)Cc3ccccc3C2)cc1
## Input Parameter check: reported pIC50 is higher for which label, 1 or 2 ? Record your answer as the label of the chosen record.
## Output 1
(1: 8.30, 2: 7.05)

[P] CCCC[C@H](NC(=O)[C@H](CC(C)C)NC(=O)[C@@H](NC(=O)[C@H](Cc1ccccc1C)NC(C)=O)C(C)(C)C)C(=O)C(=O)NCc1ccccc1
[Q] COC[C@H](NC(=O)C1Cc2ccccc2C1)C(=O)N[C@@H](Cc1ccc(OC)cc1)C(=O)N[C@@H](Cc1ccccc1)C(=O)C(=O)NCc1ccccc1
[R] COc1ccc(C[C@H](NC(=O)[C@H](C)NS(=O)(=O)c2ccccc2C)C(=O)N[C@@H](Cc2ccccc2)C(=O)C(=O)NCc2ccccc2)cc1
[S] COc1ccc(C[C@H](NC(=O)[C@H](C)NC(=O)c2cc(C)on2)C(=O)N[C@@H](Cc2ccccc2)C(=O)C(=O)NCc2ccccc2)cc1
[T] C[C@H](NC(=O)OCc1ccccc1)C(=O)NC(CC(F)(F)F)C(=O)N[C@@H](Cc1ccccc1)C(=O)C(=O)NCc1ccccc1 (some centres unmarked)
## Input Order the records by pIC50, with each subsequent value no larger than the one before. Give the order by naming the labels one after another as requested.
## Output Q, S, R, P, T
(Q: 9.00, S: 8.15, R: 7.34, P: 6.84, T: 6.28)

[P] C[C@H](NC(=O)OCc1ccccc1)C(=O)N[C@@H](Cc1c[nH]c2ccccc12)C(=O)N[C@@H](Cc1ccccc1)C(=O)C(=O)NC1CC1
[Q] C[C@H](NC(=O)c1cc(C(F)(F)F)nn1C)C(=O)N[C@@H](Cc1ccccc1)C(=O)N[C@@H](Cc1ccccc1)C(=O)C(=O)NCc1ccccc1
## Input Select one. Lower pIC50: P or Q Select an item and report its label.
## Output Q
(Q: 6.75, P: 7.96)
